# Tested on: SF-268 CNS
# experimental protocol: NCI tumour cell line growth inhibition, 48 h
Catalogue of compounds with associated GI50
parameter: GI50

compound: O=C(c1ccccc1)C(Br)C(Br)c1cccc([N+](=O)[O-])c1 (stereo not drawn)
endpoint result: 2470 nM
//
compound: O=c1[nH]c(=O)c2cc(C3CC(O)C(CO)O3)ccc2[nH]1 (stereo not drawn)
endpoint result: > 100000 nM
//
compound: O=S(=O)(c1cccc2c(Cl)cccc12)N1CCCNCC1
endpoint result: 21800 nM
//
compound: COc1ccccc1N1CCN(CCc2c[nH]c3cc4c(cc23)OCO4)CC1
endpoint result: 35600 nM
//
compound: COc1ccc(NC(=O)COCCOCCNC[C@@H]2C(=O)O[C@H]3[C@H]2CC/C(COC(=O)OC/C2=C/CC[C@@]4(C)O[C@H]4[C@H]4OC(=O)[C@@H](CN(C)C)[C@@H]4CC2)=C\CC[C@@]2(C)O[C@@H]32)c(O)c1C(N)=O
endpoint result: 8700 nM
//
compound: O=P(CCCCP(=O)(c1ccccc1)c1ccccc1)(c1ccccc1)c1ccccc1.[Cl][Sn]([Cl])([c]1ccccc1)[c]1ccccc1
endpoint result: 1750 nM
//
compound: C=C1C(=O)O[C@H]2[C@H]1CCC(/C=N/c1ncc(Br)cc1N)=C\CC[C@@]1(C)O[C@@H]21
endpoint result: 2860 nM
//
compound: Cc1ccc2c(c1)C(C)Cc1c(Cl)ncnc1N2C (stereo not drawn)
endpoint result: 2500 nM
//
compound: OC(CNCC1CCCO1)Cn1c2ccc(Cl)cc2c2cc(Cl)ccc21 (stereo not drawn)
endpoint result: 1870 nM
//
compound: COc1ccc(/C(=N\O)c2cc(C)c(OC)c(C)c2)cc1O
endpoint result: 22.2 nM
//
compound: C=C(C)[C@@H]1CC[C@]2(C)[C@H](CC=C3[C@@H]4[C@@H](C)[C@H](C)CC[C@]4(C(N)=O)CC[C@]32C)[C@@]1(C)CCC#N
endpoint result: 4520 nM
//
compound: CCN1Cc2c(ccc(F)c2C#N)O[C@@H](C)CNC(=O)c2c(N)nn3ccc1nc23
endpoint result: 3260 nM
//
compound: COc1cc(/C=N/NC(=O)c2cnn3c2NC(c2ccccc2)C3)ccc1Oc1ccccc1 (stereo not drawn)
endpoint result: 2460 nM

----------
# Tested on: LXFL 529 NSCLC
# experimental protocol: NCI tumour cell line growth inhibition, 48 h
parameter: TGI

compound: COC(=O)NN=C1C(C)(C)C(=O)C1(C)C
study target: LXFL 529 NSCLC
endpoint result: > 100 µM
//
compound: CCN(CC)CCn1c2ccccc2c(=O)c2c(O)ccc(O)c21
study target: LXFL 529 NSCLC
endpoint result: 41.7 µM
//
compound: O=c1nc(NC(c2ccccc2)(c2ccccc2)c2ccccc2)ccn1CCNCCn1ccc(NC(c2ccccc2)(c2ccccc2)c2ccccc2)nc1=O
study target: LXFL 529 NSCLC
endpoint result: 26.2 µM
//
compound: C[N+]1(C)C/C(=C\c2ccccc2)C(=O)/C(=C/c2ccccc2)C1
study target: LXFL 529 NSCLC
endpoint result: > 100 µM
//
compound: CC(C)C(Sc1nc(-c2ccccc2)c(-c2ccccc2)[nH]1)C(=O)NN (stereo not given)
study target: LXFL 529 NSCLC
endpoint result: > 100 µM
//
compound: C[C@]12CCC(=O)C(O)=C1CC[C@@H]1C2CC[C@]2(C)Nc3c(cnn3-c3ccccc3)CC12 (stereo not given in full)
study target: LXFL 529 NSCLC
endpoint result: > 100 µM
//
compound: COc1ccc2c(c1)Oc1cc(O)ccc1[C@@H]2c1ccccc1C(=O)NC(C)c1ccccc1 (stereo not given in full)
study target: LXFL 529 NSCLC
endpoint result: 30.1 µM
//
compound: C/C=C1/CCC2c3[nH]c4ccccc4c3CCN2C1 (stereo not given)
study target: LXFL 529 NSCLC
endpoint result: > 100 µM
//
compound: CN(C)CC1CCCC(CN(C)C)C1=NOC(=O)c1ccccc1 (stereo not given)
study target: LXFL 529 NSCLC
endpoint result: > 100 µM
//
compound: C1CSC(=[N+]2CC[N+](=C3SCCS3)CC2)S1
study target: LXFL 529 NSCLC
endpoint result: > 100 µM

----------
Catalogue of compounds with associated GI50
# Tested on: LOX IMVI melanoma
# experimental protocol: NCI tumour cell line growth inhibition, 48 h

compound: NC1=C(c2nc(-c3ccccc3)cs2)C(c2ccc(Br)cc2)c2c(c3ccccc3oc2=O)O1 (configuration not stated)
GI50: > 150 µg/mL
//
compound: COc1ccccc1N1CCN(CCc2c[nH]c3cc4c(cc23)OCO4)CC1
GI50: 11.6 µM
//
compound: Nc1nc(N)c2c(n1)NC(c1ccc(F)cc1)C1CCc3ccccc3C1=N2 (configuration not stated)
GI50: 3.98 µM
//
compound: COc1ccc(/C=C(\C#N)n2nnc3ccccc32)cc1
GI50: 0.548 µM
//
compound: COc1ccc(NC(=O)COCCOCCNC[C@@H]2C(=O)O[C@H]3[C@H]2CC/C(COC(=O)OC/C2=C/CC[C@@]4(C)O[C@H]4[C@H]4OC(=O)[C@@H](CN(C)C)[C@@H]4CC2)=C\CC[C@@]2(C)O[C@@H]32)c(O)c1C(N)=O
GI50: 5.31 µM
//
compound: Cc1cc(=O)[nH]c2cc3c(c4c(n3Cc3ccc(Cl)cc3Cl)CC(C)(C)CC4=O)c(O)c12
GI50: > 100 µM
//
compound: CC(NCCC(=O)N(CCC(=O)N(CCC(=O)N(CCC(=O)N(CCC(=O)N(CCC(=O)N(CCC(=O)N(CCC(=O)N(CCC(=O)N(CCC(=O)O)[C@H](C)c1ccccc1)[C@H](C)c1ccccc1)[C@H](C)c1ccccc1)[C@H](C)c1ccccc1)[C@H](C)c1ccccc1)[C@H](C)c1ccccc1)[C@H](C)c1ccccc1)[C@H](C)c1ccccc1)[C@H](C)c1ccccc1)c1ccccc1 (some centres not stated)
GI50: 1.17 µM

----------
# Tested on: HT29 colon
# experimental protocol: NCI tumour cell line growth inhibition, 48 h

compound: O=C1CCCC1C(O)(C(F)(F)F)C(F)(F)F (stereo not given)
study target: HT29 colon
display unit: µM
result modifier: >
TGI: 100
--
compound: O=S(=O)(c1cccc2c(Cl)cccc12)N1CCCNCC1
study target: HT29 colon
display unit: µM
result modifier: =
TGI: 18.1
--
compound: CC1(C)C/C(=N/O)c2c(nc3ccc4ccccc4c3c2-c2ccc(Cl)cc2)C1
study target: HT29 colon
display unit: µM
result modifier: =
TGI: 33.5
--
compound: CC(C)(C)C(=O)CP(=O)(O)O
study target: HT29 colon
display unit: µM
result modifier: >
TGI: 100
--
compound: CC(C)c1c(O)ccc2c1CCC1C(C)(C)CCCC21C (stereo not given)
study target: HT29 colon
display unit: µM
result modifier: =
TGI: 32.1
--
compound: S=C1CSc2c(ccc3ccccc23)N1
study target: HT29 colon
display unit: µM
result modifier: >
TGI: 100
--
compound: C/C=C1/CCC2c3[nH]c4ccccc4c3CCN2C1 (stereo not given)
study target: HT29 colon
display unit: µM
result modifier: >
TGI: 100
--
compound: O=c1[nH]c(=O)c2cc(C3CC(O)C(CO)O3)ccc2[nH]1 (stereo not given)
study target: HT29 colon
display unit: µM
result modifier: >
TGI: 100
--
compound: C=C1C(=O)O[C@H]2[C@H]1CCC(/C=N/c1ncc(Br)cc1N)=C\CC[C@@]1(C)O[C@@H]21
study target: HT29 colon
display unit: µM
result modifier: =
TGI: 5.52
--
compound: Cc1ccc(NC(=O)C(=O)CC(=O)c2c(C)n([O-])c3ccccc3[n+]2=O)cc1
study target: HT29 colon
display unit: µM
result modifier: =
TGI: 86.4

----------
# System: OVCAR-5 ovarian
# experimental protocol: NCI tumour cell line growth inhibition, 48 h

molecule: CCOC(=O)[C@@H]1CCN2CN(c3ccc(OC)cc3)N=C(c3ccccc3)[C@@]12c1ccccc1
study target: OVCAR-5 ovarian
TGI: > 100 µM

molecule: CC1OC(OC2C(OC(=O)[C@@H]3CC(C)(C)C[C@@H]4C5=CC[C@@H]6[C@@]7(C)C[C@H](O)[C@H](OC8OC(CO)C(O)C(O)C8O)[C@@](C)(CO)C7[C@H](O)C[C@@]6(C)[C@]5(C)C[C@@H](O)[C@H]43)OCC(O)C2O)C(O)C(O)C1O (stereo partly drawn)
study target: OVCAR-5 ovarian
TGI: > 15 µM

molecule: CNCCNc1c2c(c(NCCNC)c3[nH]ccc13)C(=O)c1ccccc1C2=O
study target: OVCAR-5 ovarian
TGI: 1.93 µM

molecule: O=C(c1ccccc1)C(Br)C(Br)c1cccc([N+](=O)[O-])c1 (stereo not drawn)
study target: OVCAR-5 ovarian
TGI: 5.65 µM

molecule: O=c1nc(NC(c2ccccc2)(c2ccccc2)c2ccccc2)ccn1CCNCCn1ccc(NC(c2ccccc2)(c2ccccc2)c2ccccc2)nc1=O
study target: OVCAR-5 ovarian
TGI: > 100 µM

molecule: COC(=O)[C@@H](NC(=O)N(CCC#N)CCCN(C(=O)N[C@H](Cc1ccccc1)C(=O)OC)c1ccccc1)C(C)C
study target: OVCAR-5 ovarian
TGI: > 100 µM

molecule: CCN1Cc2c(ccc(F)c2C#N)O[C@@H](C)CNC(=O)c2c(N)nn3ccc1nc23
study target: OVCAR-5 ovarian
TGI: 19.8 µM

molecule: O=C(Cc1ccc(Cl)cc1)Nc1ccc2oc(-c3ccccc3)nc2c1
study target: OVCAR-5 ovarian
TGI: > 100 µM

molecule: CSc1sc(=S)sc1C(=O)N(C)c1ccccc1
study target: OVCAR-5 ovarian
TGI: > 100 µM

molecule: COc1ccc(NC(=O)/C(=N/NC(N)=S)C2C(=O)NC(=S)NC2=O)c(OC)c1
study target: OVCAR-5 ovarian
TGI: > 100 µM

molecule: CN1CCCOC(c2ccc([N+](=O)[O-])cc2)O1 (stereo not drawn)
study target: OVCAR-5 ovarian
TGI: > 100 µM

molecule: C[N+]1(Cc2ccc(Cl)c(Cl)c2)CCCC1C1CCCN(Cc2ccc(Cl)c(Cl)c2)C1 (stereo not drawn)
study target: OVCAR-5 ovarian
TGI: > 100 µM

molecule: O=C(NC1C=Nc2ccc([N+](=O)[O-])cc2NC1=O)c1cc(Cl)cc([N+](=O)[O-])c1 (stereo not drawn)
study target: OVCAR-5 ovarian
TGI: > 100 µM

molecule: OC(CNCC1CCCO1)Cn1c2ccc(Cl)cc2c2cc(Cl)ccc21 (stereo not drawn)
study target: OVCAR-5 ovarian
TGI: 3.61 µM

molecule: O=C(O)C1C(C(=O)O)C23CC2(C(=O)O)C2(C(=O)O)CCC3=C3CCCC312 (stereo not drawn)
study target: OVCAR-5 ovarian
TGI: 47.3 µM

molecule: CCN1C(=O)N(c2ccccc2)C2NC(=S)N(/N=C/C=C/c3ccccc3)C21 (stereo not drawn)
study target: OVCAR-5 ovarian
TGI: > 100 µM

molecule: COc1ccc(N2C(=O)C(C)SC2c2cc3cc(Br)ccc3nc2Cl)cc1 (stereo not drawn)
study target: OVCAR-5 ovarian
TGI: > 100 µM

molecule: C=C1C(=O)O[C@H]2[C@H]1CCC(/C=N/c1ncc(Br)cc1N)=C\CC[C@@]1(C)O[C@@H]21
study target: OVCAR-5 ovarian
TGI: 11.5 µM
